Values compiled from paper PMC7531004.

Provide the recorded cell viability/% for the entries that follow.
- Tested on: P388 mouse leukemia cells
- protocolConditions: 92 h
- Experimental: Each type of assay must be simplified and miniaturized to assess the activities of the library peptides in a 96-well format for the high-throughput screening. […] Mammalian cytotoxicity assay of bead-derived peptides . P388 cells were obtained from Institute of […] for 92 h, the numbers of viable cells were determined by […] at 37 °C. The absorbance of each well at 415 nm was measured using a Benchmark microplate reader (Bio-Rad). The cytotoxicities were evaluated as cell viability (%). […]
Where a SMILES comes first, the peptide text is derived from it. [ ]: non-standard residue; d: D form. The star is where a group is joined. NHCH2CH2OH = OCCN*; For = O=C*
Please make sure the unit comes right after the number.

cell viability/% measured on CC(C)C[C@@H](NC(=O)[C@H](Cc1c[nH]c2ccccc12)NC(=O)[C@H](NC(=O)[C@H](Cc1c[nH]c2ccccc12)NC(=O)[C@H](NC(=O)[C@H](Cc1c[nH]c2ccccc12)NC(=O)[C@H](NC(=O)[C@@H](NC(=O)[C@H](NC(=O)[C@H](C)NC(=O)[C@H](NC(=O)[C@H](C)NC(=O)CNC(=O)[C@@H](NC=O)C(C)C)C(C)C)C(C)C)C(C)C)C(C)C)C(C)C)C(C)C)C(=O)N[C@@H](Cc1c[nH]c2ccccc12)C(=O)NCCO [compound 2182] (For-VGA[dV]A[dV]V[dV]W[dV]W[dV]W[dL]W-NHCH2CH2OH) = 100.0%

cell viability/% measured on CNC(=O)C[C@@H](NC(=O)[C@@H](NC(=O)[C@H](NC(=O)[C@H](C)NC(=O)[C@H](NC(=O)[C@H](C)NC(=O)CNC(=O)[C@@H](NC=O)C(C)C)C(C)C)C(C)C)C(C)C)C(=O)N[C@@H](Cc1c[nH]c2ccccc12)C(=O)N[C@H](CC(C)C)C(=O)N[C@@H](Cc1c[nH]c2ccccc12)C(=O)N[C@H](CC(C)C)C(=O)N[C@@H](Cc1c[nH]c2ccccc12)C(=O)N[C@@H](C(=O)N[C@@H](Cc1c[nH]c2ccccc12)C(=O)NCCO)C(C)C [compound 231] (For-VGA[dV]A[dV]V[dD](NHMe)W[dL]W[dL]W[dV]W-NHCH2CH2OH) = 100.0%
